Data provenance is patent EP2974737A1.

Target System: T1, purified interference factor(s) from Donor C (human)
T1 construct: the text names the donors 8, 19 and 30; also called interference in serum from Donor C
Test: SPR, interference factor immobilized; % of Fig. 9 reference
Readout Label: interference binding, % of Reference Sequence (%)
Unit % implied. Number only.

Problem: Recorded interference binding, % of Reference Sequence of SEQ ID NO: 85 (VHH) VHH: EVQLVESGGGSVQPGGSLRLSCAASRSIGRLDRMGWYRHRPGEPRELVATITGGSSINYGDSVKGRFTISIDNSKNTVYLQMNSLRPEDTAVYYCNFNKYVTSRDTWGQGTLVQVGG , please.
Result: 42

Problem: Name the reported interference binding, % of Reference Sequence value associated with the binder SEQ ID NO: 75 (VHH) VHH: EVQLVESGGGLVQPGGSLRLSCAASRSIGRLDRMGWYRHRPGEPRELVATITGGSSINYGDSVKGRFTISIDNSKNTVYLQMNSLRPEDTAVYYCNFNKYVTSRDTWGQGTLVTVSS
Result: 16

Problem: Can you share its interference binding, % of Reference Sequence? I mean this binder: SEQ ID NO: 70 (VHH) VHH: EVQLVESGGGLVQPGGSLRLSCAASRSIGRLDRMGWYRHRPGEPRELVATITGGSSINYGDSVKGRFTISIDNSKNTVYLQMNSLRPEDTAVYYCNFNKYVTSRDTWGQGTLVQVSS
Result: 98
